STUDY_TARGET: IBV endonuclease (full-length IBV RdRp complex PA/PB1/PB2) (Influenza B virus, UniProt Q5V8Z9)
METHOD_DESCRIPTION: biochemical
DETAILS: IC50, endonuclease activity of IBV
pIC50: −log10 of the molar value.

COMPOUND	pIC50
O=C1c2c(O)c(=O)ccn2N([C@@H]2c3ccccc3SCc3c2ccc(F)c3F)[C@@H]2COCCN12 [BXA, Baloxavir acid, reference compound]	6.68

---

STUDY_TARGET: SFTSV endonuclease (full-length L protein) (Dabie bandavirus)
METHOD_DESCRIPTION: biochemical
Parameters: species or system severe fever with thrombocytopenia syndrome virus
DETAILS: IC50 (μM) SFTSV (Figure 7B)

MOLECULE	STUDY_TARGET	RESULT_QUALIFIER	IC50, µM
O=C1c2c(O)c(=O)ccn2N([C@@H]2c3ccccc3SCc3c2ccc(F)c3F)[C@@H]2COCCN12 [BXA, Baloxavir acid, reference compound]	SFTSV endonuclease (full-length L protein) (Dabie bandavirus)	=	16
CC(C)N1CN([C@H]2c3ccccc3SCc3c2ccc(F)c3F)n2ccc(=O)c(O)c2C1=O [kCPF855]	SFTSV endonuclease (full-length L protein) (Dabie bandavirus)	>	100
O=C1c2c(O)c(=O)ccn2N([C@@H]2c3ccccc3CSc3ccccc32)[C@@H]2COCCN12 [kCOT912]	SFTSV endonuclease (full-length L protein) (Dabie bandavirus)	>	100
O=C(O)c1cn2c(c(O)c1=O)C(=O)N1CCOC[C@H]1N2[C@@H]1c2ccccc2SCc2c1ccc(F)c2F [kCOT923]	SFTSV endonuclease (full-length L protein) (Dabie bandavirus)	=	41
O=C1c2c(O)c(=O)ccn2N(C2c3ccccc3SCc3c2ccc(F)c3F)C2COCCN12 (centres unmarked) [kCOT909]	SFTSV endonuclease (full-length L protein) (Dabie bandavirus)	>	100

---

Each item that follows carries a reported IC50.
STUDY_TARGET: SNV endonuclease (full-length L protein) (Sin Nombre orthohantavirus)
METHOD_DESCRIPTION: biochemical
Parameters: species or system Sin Nombre virus
DETAILS: IC50 (μM) SNV (Figure 7B)

COMPOUND	IC50
CC(C)N1CN([C@H]2c3ccccc3SCc3c2ccc(F)c3F)n2ccc(=O)c(O)c2C1=O	> 100 µM
O=C(O)c1cn2c(c(O)c1=O)C(=O)N1CCOC[C@H]1N2[C@@H]1c2ccccc2SCc2c1ccc(F)c2F	13 µM
O=C1c2c(O)c(=O)ccn2N([C@@H]2c3ccccc3SCc3c2ccc(F)c3F)[C@@H]2COCCN12 [BXA, Baloxavir acid, reference compound]	> 100 µM
O=C1c2c(O)c(=O)ccn2N([C@@H]2c3ccccc3CSc3ccccc32)[C@@H]2COCCN12	> 100 µM
O=C1c2c(O)c(=O)ccn2N(C2c3ccccc3SCc3c2ccc(F)c3F)C2COCCN12 (centres unmarked)	> 100 µM

---

STUDY_TARGET: IBV endonuclease (full-length IBV RdRp complex PA/PB1/PB2) (Influenza B virus)
METHOD_DESCRIPTION: biochemical
DETAILS: IC50 (μM) IBV (Figure 7B)
MEASUREMENT_NAME: IC50

COMPOUND	STUDY_TARGET	ASSAY_VALUE
O=C1c2c(O)c(=O)ccn2N([C@@H]2c3ccccc3SCc3c2ccc(F)c3F)[C@@H]2COCCN12 [BXA, Baloxavir acid, reference compound]	IBV endonuclease (full-length IBV RdRp complex PA/PB1/PB2) (Influenza B virus)	0.21 µM
O=C1c2c(O)c(=O)ccn2N(C2c3ccccc3SCc3c2ccc(F)c3F)C2COCCN12 (centres unmarked)	IBV endonuclease (full-length IBV RdRp complex PA/PB1/PB2) (Influenza B virus)	0.32 µM

Attribution: paper PMC11946187
